Test: A CellTox Green Cytotoxicity Assay to monitor cytotoxicity in HEK293 cells - 32 hour (AID 1224881); further: potency means the concentration at half of the fitted maximal effect; nearly all actives have a fitted effect of over 40% in size
Run parameters: CellTox Green fluorescence; series mostly up to 76.8 µM
Results filed as inconclusive are left out. Activity calls are given as the source filed them. The call rests on the fitted dose curve; in most records, active means well fitted activation curve with a large enough effect in the repeat runs; inconclusive means weak or mixed curves; inactive means flat fitted curve, though single readings scatter.
Quantity: Potency

Request: Name the reported Potency value associated with the compound c1cnc2c(n1)CCCC2
Response: 43.6 µM (active)

Request: Same thing, different compound: CC1C2CC(CC2C2CCCC(O)C2)C1(C)C (centres undefined)
Response: 49 µM (active)

Request: Same question for CCCCCCCCCCCCCCC[C@H](O)[C@@H](N)CO please.
Response: 21.3 µM (active)

Request: Try the compound CC(=O)OCC(=O)[C@@]12OC(C)(C)O[C@@H]1C[C@H]1[C@@H]3C[C@H](F)C4=CC(=O)C=C[C@]4(C)[C@@]3(F)[C@@H](O)C[C@@]12C
Response: 26.8 µM (active)
